- tgt: FLT4 (Homo sapiens)
- Sequence (P35916 25-1363): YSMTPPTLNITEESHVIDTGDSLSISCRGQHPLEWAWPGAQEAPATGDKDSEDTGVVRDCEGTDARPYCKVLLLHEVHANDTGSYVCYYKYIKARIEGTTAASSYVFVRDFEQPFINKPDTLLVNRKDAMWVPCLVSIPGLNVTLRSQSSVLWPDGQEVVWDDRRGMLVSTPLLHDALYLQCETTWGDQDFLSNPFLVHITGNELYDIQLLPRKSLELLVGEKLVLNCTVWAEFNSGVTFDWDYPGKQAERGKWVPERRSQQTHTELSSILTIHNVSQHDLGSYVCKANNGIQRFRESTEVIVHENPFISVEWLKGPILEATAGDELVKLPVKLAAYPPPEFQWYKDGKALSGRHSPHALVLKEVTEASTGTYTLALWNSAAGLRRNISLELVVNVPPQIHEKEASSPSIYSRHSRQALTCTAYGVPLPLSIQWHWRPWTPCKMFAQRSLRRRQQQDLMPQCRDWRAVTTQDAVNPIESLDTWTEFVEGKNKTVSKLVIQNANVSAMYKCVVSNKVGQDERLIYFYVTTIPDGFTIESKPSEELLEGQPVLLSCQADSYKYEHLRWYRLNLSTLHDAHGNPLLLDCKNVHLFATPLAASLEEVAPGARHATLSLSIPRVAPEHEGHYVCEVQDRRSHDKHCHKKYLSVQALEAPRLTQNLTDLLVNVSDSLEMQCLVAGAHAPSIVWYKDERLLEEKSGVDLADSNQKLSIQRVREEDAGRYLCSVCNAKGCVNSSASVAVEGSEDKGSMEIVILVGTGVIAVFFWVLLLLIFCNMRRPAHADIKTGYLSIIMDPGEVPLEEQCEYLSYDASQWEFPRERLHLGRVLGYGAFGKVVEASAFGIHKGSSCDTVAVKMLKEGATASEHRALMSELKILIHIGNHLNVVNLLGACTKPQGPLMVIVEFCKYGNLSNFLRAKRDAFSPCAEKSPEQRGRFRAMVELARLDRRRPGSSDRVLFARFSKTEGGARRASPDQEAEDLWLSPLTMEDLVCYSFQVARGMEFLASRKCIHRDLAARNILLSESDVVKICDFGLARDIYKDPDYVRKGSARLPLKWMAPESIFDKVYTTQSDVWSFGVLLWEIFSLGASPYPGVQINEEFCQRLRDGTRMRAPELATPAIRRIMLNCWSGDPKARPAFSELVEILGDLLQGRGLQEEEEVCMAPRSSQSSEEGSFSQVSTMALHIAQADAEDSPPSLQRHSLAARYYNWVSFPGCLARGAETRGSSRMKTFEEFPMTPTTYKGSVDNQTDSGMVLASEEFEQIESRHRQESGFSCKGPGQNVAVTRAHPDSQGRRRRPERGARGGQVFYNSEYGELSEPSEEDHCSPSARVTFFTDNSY
reported_metric: IC50

query: # get_value(readout='IC50', item= `CCS(=O)(=O)Cc1cnc(Oc2c(F)cc(F)cc2OCCCCOc2ccc(/C=C/c3cc(OC)cc(OC)c3)cc2)c(-c2cc(C)c3c(=O)[nH]ccn23)c1` )
result: > 10 µM

###

- System: shBRD4-CAKI-2 cells
- experiment_summary: MTT assay on shRNA-transfected CAKI-2 cells
- Format: cell-based
- run_parameters: Homo sapiens, CAKI-2 stably expressing BRD4 shRNA, 48 h, read-out: IC50 (μM) ± SD shBRD4-CAKI-2
reported_metric: IC50 (µM)
Numbers only, in µM.

query: Please look up its IC50: `CCS(=O)(=O)Cc1cnc(Oc2c(F)cc(F)cc2OCCCCOc2ccc(/C=C/c3cc(OC)cc(OC)c3)cc2)c(-c2cc(C)c3c(=O)[nH]ccn23)c1`
result: 5.09

###

- tgt: UniProt P42684
- Sequence (P42684 whole entry): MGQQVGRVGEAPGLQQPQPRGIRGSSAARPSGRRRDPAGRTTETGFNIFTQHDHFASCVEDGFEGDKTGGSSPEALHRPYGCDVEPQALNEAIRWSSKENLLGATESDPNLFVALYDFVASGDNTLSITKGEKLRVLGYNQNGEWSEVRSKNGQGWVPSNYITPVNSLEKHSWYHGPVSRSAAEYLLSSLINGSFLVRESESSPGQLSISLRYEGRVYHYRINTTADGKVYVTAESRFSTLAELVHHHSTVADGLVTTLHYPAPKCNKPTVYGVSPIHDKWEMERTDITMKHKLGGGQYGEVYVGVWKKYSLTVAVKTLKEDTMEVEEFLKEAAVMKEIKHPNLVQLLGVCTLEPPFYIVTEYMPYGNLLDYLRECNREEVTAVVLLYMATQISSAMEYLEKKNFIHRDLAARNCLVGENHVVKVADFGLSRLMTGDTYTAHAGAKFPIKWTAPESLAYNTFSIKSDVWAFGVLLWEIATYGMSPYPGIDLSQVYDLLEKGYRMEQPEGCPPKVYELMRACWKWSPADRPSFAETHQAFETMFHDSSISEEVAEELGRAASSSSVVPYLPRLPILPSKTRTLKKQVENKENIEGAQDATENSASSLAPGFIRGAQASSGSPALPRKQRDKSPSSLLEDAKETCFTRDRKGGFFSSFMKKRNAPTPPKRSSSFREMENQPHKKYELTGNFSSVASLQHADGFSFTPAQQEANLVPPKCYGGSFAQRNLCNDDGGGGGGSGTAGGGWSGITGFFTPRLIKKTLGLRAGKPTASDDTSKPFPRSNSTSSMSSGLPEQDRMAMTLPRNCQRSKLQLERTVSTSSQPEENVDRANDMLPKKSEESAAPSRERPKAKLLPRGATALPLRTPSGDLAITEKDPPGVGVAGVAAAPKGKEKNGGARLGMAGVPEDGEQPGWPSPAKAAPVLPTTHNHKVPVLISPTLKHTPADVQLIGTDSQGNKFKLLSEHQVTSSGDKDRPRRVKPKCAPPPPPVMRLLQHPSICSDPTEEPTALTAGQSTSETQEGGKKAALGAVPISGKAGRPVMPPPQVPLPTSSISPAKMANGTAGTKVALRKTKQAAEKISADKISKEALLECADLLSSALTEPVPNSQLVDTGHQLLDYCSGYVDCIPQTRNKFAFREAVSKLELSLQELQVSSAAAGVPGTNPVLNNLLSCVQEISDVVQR
pIC50: −log10 of the molar value.
reported_metric: pIC50

query: // lookup pIC50 for CCS(=O)(=O)Cc1cnc(Oc2c(F)cc(F)cc2OCCCCOc2ccc(/C=C/c3cc(OC)cc(OC)c3)cc2)c(-c2cc(C)c3c(=O)[nH]ccn23)c1 [BST-4]
result: < 5.00

###

- tgt: LTK (Homo sapiens)
- Sequence (P29376 17-864): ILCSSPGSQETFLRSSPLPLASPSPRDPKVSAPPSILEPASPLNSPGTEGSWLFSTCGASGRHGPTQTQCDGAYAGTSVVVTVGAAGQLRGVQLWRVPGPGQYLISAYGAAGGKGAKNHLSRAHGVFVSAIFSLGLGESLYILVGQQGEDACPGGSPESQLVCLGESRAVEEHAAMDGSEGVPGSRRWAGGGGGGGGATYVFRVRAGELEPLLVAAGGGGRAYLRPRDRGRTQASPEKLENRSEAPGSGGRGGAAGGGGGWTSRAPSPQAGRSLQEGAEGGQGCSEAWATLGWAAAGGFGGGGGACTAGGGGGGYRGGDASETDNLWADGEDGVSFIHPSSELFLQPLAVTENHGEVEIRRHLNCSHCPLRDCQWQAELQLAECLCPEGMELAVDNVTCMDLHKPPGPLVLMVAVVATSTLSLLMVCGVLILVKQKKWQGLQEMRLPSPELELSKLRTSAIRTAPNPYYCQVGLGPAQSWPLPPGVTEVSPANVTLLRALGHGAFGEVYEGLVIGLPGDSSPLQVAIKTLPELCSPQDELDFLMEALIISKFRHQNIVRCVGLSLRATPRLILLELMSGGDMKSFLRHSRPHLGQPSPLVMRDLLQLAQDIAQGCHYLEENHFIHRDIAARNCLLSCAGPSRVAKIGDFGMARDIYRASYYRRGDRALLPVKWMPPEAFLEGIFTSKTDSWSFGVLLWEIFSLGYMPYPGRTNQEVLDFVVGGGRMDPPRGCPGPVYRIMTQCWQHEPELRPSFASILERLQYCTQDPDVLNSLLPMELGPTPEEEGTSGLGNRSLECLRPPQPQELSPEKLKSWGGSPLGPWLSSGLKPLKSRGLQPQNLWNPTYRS
pIC50: −log10 of the molar value.
reported_metric: pIC50

query: Looking for the measured pIC50 of CCS(=O)(=O)Cc1cnc(Oc2c(F)cc(F)cc2OCCCCOc2ccc(/C=C/c3cc(OC)cc(OC)c3)cc2)c(-c2cc(C)c3c(=O)[nH]ccn23)c1 [BST-4] , can you help?
result: < 5.00

The origin of these recorded values is paper PMC11897524.
